target: ceramide-specific glucosyltransferase (Rattus norvegicus); assay: Ceramide-specific glucosyltransferase assay, rat testicular microsomes; format: biochemical, Long Evans (LE) rat; conditions: read-out: ceramide-specific glucosyltransferase IC50 (LE rat); rat testicular microsomes; n.i. = no inhibition at 1000 µM concentration
Sequence (Q9R0E0 whole entry): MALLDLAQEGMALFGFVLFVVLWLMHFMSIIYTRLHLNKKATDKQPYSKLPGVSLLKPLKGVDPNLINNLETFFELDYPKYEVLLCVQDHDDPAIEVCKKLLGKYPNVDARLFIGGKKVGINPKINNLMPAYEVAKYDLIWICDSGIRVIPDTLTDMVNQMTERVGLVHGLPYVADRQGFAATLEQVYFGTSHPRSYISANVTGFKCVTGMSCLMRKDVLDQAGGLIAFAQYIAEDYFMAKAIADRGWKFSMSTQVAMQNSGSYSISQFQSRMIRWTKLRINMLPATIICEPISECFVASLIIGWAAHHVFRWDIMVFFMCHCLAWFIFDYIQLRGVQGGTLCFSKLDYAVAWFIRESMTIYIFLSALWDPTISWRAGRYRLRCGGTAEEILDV
Entries and their measured IC50 follow.

{"compound": "CCCCCCCCCN1C[C@@H](O)[C@@H](O)[C@@H](O)[C@H](O)[C@@H](O)C1 [Compound 6]", "target": "ceramide-specific glucosyltransferase (Rattus norvegicus)", "IC50": "127 µM"}
{"compound": "CCCCCCCCCN1[C@H](CO)[C@@H](O)[C@@H]1CO [Compound 25]", "target": "ceramide-specific glucosyltransferase (Rattus norvegicus)", "IC50": "91 µM"}

Now look at this one.
Problem: State the recorded IC50 for this entry: CCCCN1[C@H](CO)[C@@H](O)[C@@H]1CO [Compound 24]
Result: > 300 µM
